- tested-system: human GnRH receptors (Homo sapiens, UniProt P30968)
- Construct: expressed in transfected cells; host or cells: HEK 293 cells, stably transfected; membranes
- Sequence (P30968 whole entry): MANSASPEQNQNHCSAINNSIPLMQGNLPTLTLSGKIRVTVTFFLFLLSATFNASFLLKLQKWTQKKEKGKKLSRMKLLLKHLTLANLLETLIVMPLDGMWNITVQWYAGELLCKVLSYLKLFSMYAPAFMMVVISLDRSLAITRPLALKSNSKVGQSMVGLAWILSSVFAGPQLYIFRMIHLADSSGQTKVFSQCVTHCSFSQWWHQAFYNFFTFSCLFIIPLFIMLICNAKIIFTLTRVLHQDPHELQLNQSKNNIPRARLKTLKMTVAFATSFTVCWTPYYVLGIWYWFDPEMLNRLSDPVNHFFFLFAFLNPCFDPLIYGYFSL
- protocol-summary: Radioligand binding: inhibition of 125I-GnRH-A binding to human GnRH receptor membranes
- test-settings: HEK 293 cell membranes
Bucketed by reported Ki, buckets being Low = under 5 nM, Medium = from 5 nM up to 30 nM, High = 30 nM and over

-- ask For this compound, which bin applies? "COc1cc(CNc2nc(OC)c(NC(=O)c3ccc(Cc4cc5c(cc4C)C(C)(C)OC5(C)C)o3)c(OC)n2)cc(OC)c1OC"
-- reply Medium

-- ask For this compound, which bin applies? "COc1nc(N2CCOCC2)nc(OC)c1NC(=O)c1ccc(Cc2cc3c(cc2C)C(C)(C)CCC3(C)C)o1"
-- reply Low

-- ask For this compound, which bin applies? "COc1nc(NCCCN2CCOCC2)nc(OC)c1NC(=O)c1ccc(Cc2c(C)cc(C)c3c2OCC3(C)C)o1"
-- reply Medium

-- ask For this compound, which bin applies? "COc1nc(N(Cc2ccccn2)Cc2ccccn2)nc(OC)c1NC(=O)c1ccc(Cc2cc3c(cc2C)C(C)(C)OC3(C)C)o1"
-- reply High

-- ask For this compound, which bin applies? "CCOCCN(CCOCC)c1nc(OC)c(NC(=O)c2ccc(Cc3cc4c(cc3C)C(C)(C)OC4(C)C)o2)c(OC)n1"
-- reply High

-- ask For this compound, which bin applies? "COc1nc(NCCCN2CCN(CCCN)CC2)nc(OC)c1NC(=O)c1ccc(Cc2cc3c(cc2C)C(C)(C)OC3(C)C)o1"
-- reply Low

-- ask For this compound, which bin applies? "CCc1ccc(CN(CCCO)c2nc(OC)c(NC(=O)c3ccc(Cc4cc5c(cc4C)C(C)(C)OC5(C)C)o3)c(OC)n2)cc1"
-- reply High

-- ask For this compound, which bin applies? "COCCNc1nc(OC)c(NC(=O)c2ccc(Cc3cc4c(cc3C)C(C)(C)OC4(C)C)o2)c(OC)n1"
-- reply Low

-- ask For this compound, which bin applies? "COc1nc(NCCSCCO)nc(OC)c1NC(=O)c1ccc(Cc2cc3c(cc2C)C(C)(C)OC3(C)C)o1"
-- reply Low

-- ask For this compound, which bin applies? "COc1nc(NCCN(C)C)nc(OC)c1NC(=O)c1ccc(Cc2cc3c(cc2C)C(C)(C)OC3(C)C)o1"
-- reply Medium

-- ask For this compound, which bin applies? COc1nc(NCCN(C)C(=O)c2ccc(Cc3cc4c(cc3C)C(C)(C)OC4(C)C)o2)nc(OC)c1NC(=O)c1ccc(Cc2cc3c(cc2C)C(C)(C)OC3(C)C)o1 [Example D2]
-- reply Medium

-- ask For this compound, which bin applies? "COc1nc(NCCCN2CCOCC2)nc(OC)c1NC(=O)c1ccc(Cc2cc3c(cc2C)C(C)(C)OC3(C)C)o1"
-- reply Medium

-- ask For this compound, which bin applies? "COc1nc(N2CCN(CC(=O)N(C)C)CC2)nc(OC)c1NC(=O)c1ccc(Cc2cc3c(cc2C)C(C)(C)OC3(C)C)o1"
-- reply High

-- ask For this compound, which bin applies? "COc1nc(OC)c(NC(=O)c2ccc(Cc3cc4c(cc3C)C(C)(C)OC4(C)C)o2)c(OC)n1"
-- reply Low

-- ask For this compound, which bin applies? "COc1nc(NCCCN(C)C)nc(OC)c1NC(=O)c1ccc(Cc2cc3c(cc2C)C(C)(C)CC3(C)C)o1"
-- reply Low

-- ask For this compound, which bin applies? "COc1nc(NCCCN(C)C)nc(OC)c1NC(=O)c1ccc(Cc2c(C)cc(C)c3c2OCC3(C)C)o1"
-- reply Medium

-- ask For this compound, which bin applies? "COc1nc(NCCCN2CCOCC2)nc(OC)c1NC(=O)c1ccc(Cc2cc3c(cc2C)C(C)(C)CCC3(C)C)o1"
-- reply Low

-- ask For this compound, which bin applies? "C=C(C)CN(Cc1ccco1)c1nc(OC)c(NC(=O)c2ccc(Cc3cc4c(cc3C)C(C)(C)OC4(C)C)o2)c(OC)n1"
-- reply High

-- ask For this compound, which bin applies? "COc1nc(NCCCN2CCOCC2)nc(OC)c1NC(=O)c1ccc(Cc2c(C)cc3c(c2C)C(C)(C)CO3)o1"
-- reply High

-- ask For this compound, which bin applies? COCCOc1nc(OC)c(NC(=O)c2ccc(Cc3cc4c(cc3C)CCCC4(C)C)o2)c(OC)n1 [Example E1]
-- reply Low

-- ask For this compound, which bin applies? COc1nc(N2CCC3CNC(=O)C3C2)nc(OC)c1NC(=O)c1ccc(Cc2cc3c(cc2C)C(C)(C)OC3(C)C)o1 (stereo not shown)
-- reply Medium

-- ask For this compound, which bin applies? "COc1nc(NCCC#N)nc(OC)c1NC(=O)c1ccc(Cc2cc3c(cc2C)CCCC3(C)C)o1"
-- reply Low

-- ask For this compound, which bin applies? "COc1nc(NCc2ccc(N)cc2)nc(OC)c1NC(=O)c1ccc(Cc2cc3c(cc2C)C(C)(C)OC3(C)C)o1"
-- reply Medium

-- ask For this compound, which bin applies? "COc1nc(Oc2ccccc2)nc(OC)c1NC(=O)c1ccc(Cc2cc3c(cc2C)C(C)(C)OC3(C)C)o1"
-- reply Medium

-- ask For this compound, which bin applies? "COc1nc(NC2CCN(C)CC2)nc(OC)c1NC(=O)c1ccc(Cc2cc3c(cc2C)C(C)(C)OC3(C)C)o1"
-- reply High

-- ask For this compound, which bin applies? "COc1nc(N2CCc3nc(N(C)C)ncc3C2)nc(OC)c1NC(=O)c1ccc(Cc2cc3c(cc2C)C(C)(C)OC3(C)C)o1"
-- reply High

-- ask For this compound, which bin applies? "COc1nc(OC)c(NC(=O)c2ccc(Cc3cc4c(cc3C)C(C)(C)CCC4(C)C)o2)c(OC)n1"
-- reply Low
